- Experimental system: human D2 receptor (Homo sapiens (Human))
- Sequence (P14416 whole entry): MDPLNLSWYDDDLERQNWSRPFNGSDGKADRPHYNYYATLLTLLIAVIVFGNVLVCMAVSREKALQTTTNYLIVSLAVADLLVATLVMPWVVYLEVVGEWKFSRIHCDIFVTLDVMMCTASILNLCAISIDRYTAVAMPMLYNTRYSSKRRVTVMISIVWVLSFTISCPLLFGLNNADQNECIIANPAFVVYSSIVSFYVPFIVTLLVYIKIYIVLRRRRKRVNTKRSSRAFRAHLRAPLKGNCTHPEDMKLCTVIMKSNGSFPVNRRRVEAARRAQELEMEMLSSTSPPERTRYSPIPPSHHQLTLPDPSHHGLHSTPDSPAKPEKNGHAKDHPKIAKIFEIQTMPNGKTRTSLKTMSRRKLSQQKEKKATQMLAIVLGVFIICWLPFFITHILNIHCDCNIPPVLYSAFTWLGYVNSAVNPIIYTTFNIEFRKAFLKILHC
- Protocol: Radioligand binding assay, [3H]-spiperone, human D2 receptor
- Condition context: membranes of HEK293 EBNA cells expressing human D2; 0.7 nM [3H]-spiperone
List of log10 Ki values.
Reported metric: log10 Ki (log10 of the value in nM)

Compound: O=C(N[C@H]1CC[C@H](CCN2CCN(c3nccc4c3CCO4)CC2)CC1)C(F)(F)F
Reported metric: log10 Ki
Meas value: 2.89

Compound: CO[C@@H]1CC[C@@H](CC(=O)N[C@H]2CC[C@H](CCN3CCN(c4nccc5occc45)CC3)CC2)C1 (racemic)
Reported metric: log10 Ki
Meas value: 2.90

Compound: O=C(N[C@H]1CC[C@H](CCN2CCN(c3nccc4c3CCO4)CC2)CC1)c1ccc(F)cc1
Reported metric: log10 Ki
Meas value: 2.53

Compound: CC(C)CC(=O)N[C@H]1CC[C@H](CCN2CCN(c3nccc4c3CCO4)CC2)CC1
Reported metric: log10 Ki
Meas value: 2.82

Compound: O=C(N[C@H]1CC[C@H](CCN2CCN(c3nccc4occc34)CC2)CC1)C1CCOCC1
Reported metric: log10 Ki
Meas value: 2.71

Compound: O=C(N[C@H]1CC[C@H](CCN2CCN(c3nccc4c3CCO4)CC2)CC1)c1ccc(-n2cccc2)cc1
Reported metric: log10 Ki
Meas value: 2.21

Compound: CC#CC(=O)N[C@H]1CC[C@H](CCN2CCN(c3nccc4c3CCO4)CC2)CC1
Reported metric: log10 Ki
Meas value: 2.63

Compound: COCC(=O)N[C@H]1CC[C@H](CCN2CCN(c3nccc4c3CCO4)CC2)CC1
Reported metric: log10 Ki
Meas value: 3.19

Compound: O=C(CC1(O)CCC1)N[C@H]1CC[C@H](CCN2CCN(c3nccc4c3CCO4)CC2)CC1
Reported metric: log10 Ki
Meas value: 2.61

Compound: CC(C)C(=O)N[C@H]1CC[C@H](CCN2CCN(c3nccc4c3CCO4)CC2)CC1
Reported metric: log10 Ki
Meas value: 2.85

Compound: O=C(N[C@H]1CC[C@H](CCN2CCN(c3nccc4c3CCO4)CC2)CC1)c1ccc(C(F)(F)F)cc1
Reported metric: log10 Ki
Meas value: 2.94

Compound: O=C(C[C@@H]1COCCO1)N[C@H]1CC[C@H](CCN2CCN(c3nccc4c3CCO4)CC2)CC1
Reported metric: log10 Ki
Meas value: 3.05

Compound: CS(=O)(=O)CC(=O)N[C@H]1CC[C@H](CCN2CCN(c3nccc4c3CCO4)CC2)CC1
Reported metric: log10 Ki
Meas value: 3.01

Compound: Cc1cnc(N2CCN(CC[C@H]3CC[C@H](NC(=O)C4CCOCC4)CC3)CC2)c2c1OCC2
Reported metric: log10 Ki
Meas value: 3.65

Compound: CN(C)S(=O)(=O)N[C@H]1CC[C@H](CCN2CCN(c3nccc4occc34)CC2)CC1
Reported metric: log10 Ki
Meas value: 2.73

Compound: O=C(Cc1noc2ccccc12)N[C@H]1CC[C@H](CCN2CCN(c3nccc4c3CCO4)CC2)CC1
Reported metric: log10 Ki
Meas value: 3.12

All figures here come from patent US8586579B2.
